test: Intravenous and oral dosing pharmacokinetic screen, plasma concentration by LC/MS/MS; set-up: species or system C57BL/6 mice; settings: male, C57BL/6, mouse, in vivo, po, 10 mg/kg, Tucaresol concentration
reported_endpoint: concentration at 24 h (ng/mL)
Provide the reading as a plain figure in ng/mL.

Asked: For O=Cc1c(O)cccc1OCc1ccc(C(=O)O)cc1 [Tucaresol] , write its concentration at 24 h.
Given back: 26.3

###

assay: Intravenous and oral dosing pharmacokinetic screen, plasma concentration by LC/MS/MS; design: species or system C57BL/6 mice; details: male, C57BL/6, mouse, in vivo, po, 10 mg/kg, B02 concentration, Mean
reported_endpoint: concentration at 8 h (ng/mL)
Provide the reading as a plain figure in ng/mL.

Asked: For CO/N=C/c1c(O)cccc1OCc1ccc(C(=O)O)cc1 , write its concentration at 8 h.
Given back: 152

###

experiment: Pharmacokinetics of tucaresol after a single dose in healthy subjects; settings: human, plasma, 2800 mg, AUC, Mean; single dose 2800 mg
reported_endpoint: AUC (µg·h/mL)
Provide the reading as a plain figure in µg·h/mL.

Asked: For O=Cc1c(O)cccc1OCc1ccc(C(=O)O)cc1 , write its AUC.
Given back: 16900

###

assay: Pharmacokinetics of tucaresol after a single dose in healthy subjects; details: human, plasma, 2000 mg, t1/2,z, Mean; single dose 2000 mg
reported_endpoint: half-life (h)
Provide the reading as a plain figure in h.

Asked: For O=Cc1c(O)cccc1OCc1ccc(C(=O)O)cc1 [Tucaresol] , write its half-life.
Given back: 229

###

experiment: Intravenous and oral dosing pharmacokinetic screen, plasma concentration by LC/MS/MS; set-up: species or system C57BL/6 mice; details: male, C57BL/6, mouse, in vivo, po, 10 mg/kg, Tucaresol concentration, Mean
reported_endpoint: concentration at 1 h (ng/mL)
Provide the reading as a plain figure in ng/mL.

Asked: For O=Cc1c(O)cccc1OCc1ccc(C(=O)O)cc1 , write its concentration at 1 h.
Given back: 1750

###

test: Intravenous and oral dosing pharmacokinetic screen, plasma concentration by LC/MS/MS; design: species or system C57BL/6 mice; conditions: male, C57BL/6, mouse, in vivo, iv, 3 mg/kg, Tucaresol concentration
reported_endpoint: concentration at 4 h

Asked: For O=Cc1c(O)cccc1OCc1ccc(C(=O)O)cc1 , write its concentration at 4 h.
Given back: 122 ng/mL

###

assay: Intravenous and oral dosing pharmacokinetic screen, plasma concentration by LC/MS/MS; parameters: species or system C57BL/6 mice; settings: male, C57BL/6, mouse, in vivo, po, 10 mg/kg, Tucaresol concentration, Mean
reported_endpoint: concentration at 4 h (ng/mL)
Provide the reading as a plain figure in ng/mL.

Asked: For O=Cc1c(O)cccc1OCc1ccc(C(=O)O)cc1 , write its concentration at 4 h.
Given back: 614

###

assay: Intravenous and oral dosing pharmacokinetic screen, plasma concentration by LC/MS/MS; parameters: species or system C57BL/6 mice; details: male, C57BL/6, mouse, in vivo, iv, 3 mg/kg, B02 concentration
reported_endpoint: concentration at 0.25 h (ng/mL)
Provide the reading as a plain figure in ng/mL.

Asked: For CO/N=C/c1c(O)cccc1OCc1ccc(C(=O)O)cc1 , write its concentration at 0.25 h.
Given back: 1740
